The entries below are paired with their reported log2 fold change of degron read counts.
Molecular target: T1, CRBN, Q96SW2;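 note: pooled lentiviral library of zinc finger degron-EGFP fusions in mCherry-positive Jurkat cells, FACS-sorted after compound exposure, with degron abundance counted by next-generation sequencing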
T1 chain: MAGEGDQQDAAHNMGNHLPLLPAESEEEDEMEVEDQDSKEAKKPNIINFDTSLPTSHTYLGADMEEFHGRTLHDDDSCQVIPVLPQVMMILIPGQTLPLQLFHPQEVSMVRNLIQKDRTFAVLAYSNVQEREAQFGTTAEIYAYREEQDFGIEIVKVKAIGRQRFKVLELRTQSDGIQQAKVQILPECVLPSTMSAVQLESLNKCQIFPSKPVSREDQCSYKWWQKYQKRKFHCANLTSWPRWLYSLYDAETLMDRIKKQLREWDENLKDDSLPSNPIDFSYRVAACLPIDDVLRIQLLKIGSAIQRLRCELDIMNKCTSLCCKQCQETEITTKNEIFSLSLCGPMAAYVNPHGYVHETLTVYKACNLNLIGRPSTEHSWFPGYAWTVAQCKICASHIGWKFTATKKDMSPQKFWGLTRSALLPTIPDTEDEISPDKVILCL
Experiment: log2 fold change of degron read counts, EGFP-low vs EGFP+ sorted cells (limma voom), compound-induced degradation; higher = more compound-induced degradation of the degron-EGFP fusion; degrons are variants of IKZF1/3 zinc finger 2; compound dose not given here
Conditions: Jurkat; 18 h; compound: compound 33 (diphenyl IMiD analogue)
In all, about 8,300 sequences were measured (“log2 fold change of degron read counts, EGFP-low vs EGFP+ sorted cells (limma voom), compound-induced degradation”: median about -1.1, highest 2% from about 3.2 on). For the sample, the highest values were picked, then their nearest neighbours and some sequences at random.
Form: value (number only, do not type unit).

INPUT: Respond only with log2 fold change of degron read counts recorded for LACEICGFTCTQKGNLLRHIKL [46L_47A_49E_50I_52G_53F_54T_55C_67L_, Q9UKT9]
OUTPUT: 1.55
